The reported numbers originate from patent US20240294644A1.

# maps each entry to its Kd
Target: T1, recombinant human VTCN1-his protein (human, UniProt Q7Z7D3 25-259, limits assumed)
T1 construct: also called human VTCN1 protein; recombinant VTCN1
T1 sequence: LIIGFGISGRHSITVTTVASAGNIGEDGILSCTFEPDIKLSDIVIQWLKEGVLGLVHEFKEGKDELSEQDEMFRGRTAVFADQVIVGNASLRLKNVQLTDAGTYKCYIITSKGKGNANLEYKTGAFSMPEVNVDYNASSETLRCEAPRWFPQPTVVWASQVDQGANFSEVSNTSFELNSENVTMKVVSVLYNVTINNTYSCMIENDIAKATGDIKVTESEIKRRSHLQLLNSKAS
Test: BLI (OCTET Red), antibody on Protein A biosensor, recombinant VTCN1-his in solution
I'd appreciate it if you wrote the number followed by its unit.

binder	property name	measured result
3D11 (antibody, V domains shown, Recombinant mouse antibody made in CHO cells) VH: QVQLQQPGAELVKPGASVKLSCKASGYSFTSYWMNWVKQRPGRGLEWIGRIHPSDSETHYNQNFKSKATLTVDKSSSTAYIQLNSLTSEDSAVYYCARPYYFYGSSPYAMDYWGQGASVTVSS VL: DVVMTQTPLSLPVSLGDQASISCRSSQSIVHSNGNTYLEWYLQKPGQSPKLLIYKVSNRFSGVPDRFSGSGSGTDFTFKISRVEAEDLGVYYCFQGSHVPYTFGGGTKLEIK	Kd	6 nM

In: Determine from records and report Kd for 6D9 (antibody, mouse IgG2a, V domains shown, also called 6D9-mIgG2a; murine VTCN1 antibody 6D9) VH: QIQLQQSGPGLVQPSQSLSITCTVSGFSLTSYGVQWIRQSPGKGLEWLGVIWSSGSTDYNAAFLSRLSFSKDNSKSQVFFQMNSLQADDSAIYYCARDVTTIVEGFAHWGQGTLVTVSA VL: NIVMTQSPKSMSMSVGERVTLSCKASEKVGTYVSWYQQKPEQSPKLLIYGASNRYTGVPDRFTGSGSATDFTLTISSVQVEDLADYHCGQTYSYPFTFGSGTKLEIK
Out: 2 nM

In: Determine from records and report Kd for 10D1 (antibody, V domains shown, Recombinant mouse antibody made in CHO cells) VH: QVQLQESGPELVKPGASVKLSCKASGYIFTDYTIHWLKQSPGQGLEWIGWIYPGSGHTHYNDKFKGKATMTADKSSTTAYMQLSSLTSEDSAVFFCARGGESITTVFPLAYWGQGTLVTVSA VL: DIVMSQSPSSLAVSVGEKVTMSCKSSQSLLYSSDQKNYLAWYQQKPGQSPKLLIYWASTWESGVPDRFIGSGSGTDFTLTVSSVKAEDLAVYYCHQYYSYPPTFGAGTKLEIK
Out: 4 nM
